# System: M. chelonae ATCC 35752
# procedure_text: MIC, resazurin microtiter assay
# Type: cell-based
# cond: Mycobacteroides chelonae, ATCC35752, Mueller Hinton II; read-out: MIC M. chelonae ATCC 35752
Measured MIC by item
observable: MIC

>>> observed_value("O=C(NC1C2CC3CC(C2)CC1C3)c1cc2ccccc2[nH]1 (centres unmarked) [Compound 9, N-(2-adamantyl)-1H-indole-2-carboxamide]")
"> 32 µg/mL"
>>> observed_value("Cc1cc(C)c2cc(C(=O)NC3CCCCCCC3)[nH]c2c1")
"0.063 µg/mL"
>>> observed_value("CC1CCC(NC(=O)c2cc3ccccc3[nH]2)CC1 (centres unmarked)")
"> 32 µg/mL"
>>> observed_value("Cc1cc(C)c2cc(C(=O)NC3C4CC5CC(C4)CC3C5)[nH]c2c1 (centres unmarked)")
"> 32 µg/mL"
>>> observed_value("Cc1cc(C)c2cc(C(=O)NC(C)C34CC5CC(CC(C5)C3)C4)[nH]c2c1 (centres unmarked)")
"16 µg/mL"
>>> observed_value("Cc1cc(C)c2cc(C(=O)NCc3cccc(Cl)c3)[nH]c2c1")
"> 32 µg/mL"
>>> observed_value("C[C@@H]1[C@H]2C[C@@H](C[C@H]1NC(=O)c1cc3ccccc3[nH]1)C2(C)C")
"< 0.06 µg/mL"
>>> observed_value("O=C(NC1CCCC1)c1cc2ccccc2[nH]1 [Compound 13, N-cyclopentyl-1H-indole-2-carboxamide]")
"> 32 µg/mL"
>>> observed_value("CCCCCCCCNC(=O)c1cc2ccccc2[nH]1 [Compound 18, N-octyl-1H-indole-2-carboxamide]")
"> 32 µg/mL"
>>> observed_value("CCCCCCCCNC(=O)c1cc2c(C)cc(C)cc2[nH]1")
"> 32 µg/mL"
>>> observed_value("O=C(NC1CCCCCCC1)c1cc2ccccc2[nH]1 [Compound 10, N-cyclooctyl-1H-indole-2-carboxamide]")
"> 32 µg/mL"
